Target: c-Kit (Homo sapiens)
Sequence (P10721 26-976): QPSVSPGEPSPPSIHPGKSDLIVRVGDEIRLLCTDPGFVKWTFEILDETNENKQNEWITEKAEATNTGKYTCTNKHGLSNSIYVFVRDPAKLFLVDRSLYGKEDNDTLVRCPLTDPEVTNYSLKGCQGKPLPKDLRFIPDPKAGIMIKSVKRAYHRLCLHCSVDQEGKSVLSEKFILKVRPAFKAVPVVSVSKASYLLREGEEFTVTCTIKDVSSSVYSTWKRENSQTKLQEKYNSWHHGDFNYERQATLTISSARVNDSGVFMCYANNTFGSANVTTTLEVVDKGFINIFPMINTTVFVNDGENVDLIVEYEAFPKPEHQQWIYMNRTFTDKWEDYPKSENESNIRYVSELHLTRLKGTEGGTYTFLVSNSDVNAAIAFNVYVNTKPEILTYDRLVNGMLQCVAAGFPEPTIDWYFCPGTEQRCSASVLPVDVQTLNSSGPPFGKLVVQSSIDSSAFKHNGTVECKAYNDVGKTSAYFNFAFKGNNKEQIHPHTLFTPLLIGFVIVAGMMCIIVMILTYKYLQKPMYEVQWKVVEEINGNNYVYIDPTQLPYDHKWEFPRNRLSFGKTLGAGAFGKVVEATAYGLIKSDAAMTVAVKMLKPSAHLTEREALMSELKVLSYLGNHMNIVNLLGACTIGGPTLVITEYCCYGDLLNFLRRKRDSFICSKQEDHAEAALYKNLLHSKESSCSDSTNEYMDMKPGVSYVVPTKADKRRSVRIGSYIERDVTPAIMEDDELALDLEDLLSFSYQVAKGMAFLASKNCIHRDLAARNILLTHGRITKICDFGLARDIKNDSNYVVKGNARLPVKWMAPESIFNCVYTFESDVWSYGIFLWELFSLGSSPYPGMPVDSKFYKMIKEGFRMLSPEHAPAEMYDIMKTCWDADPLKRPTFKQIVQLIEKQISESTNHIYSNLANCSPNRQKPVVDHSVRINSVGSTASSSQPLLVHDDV
Assay: c-Kit tyrosine kinase inhibition, Caliper screening (fluorescent substrate phosphorylation, electrophoretic separation)
Type: biochemical
Settings: concentration 1.0E−07 (unit not given)
metric.name: c-Kit AVG % Activity at Specific Concentration (%)
Numeric only. Scale: %

Sample answers from the record:
// returns reported c-Kit AVG % Activity at Specific Concentration for input COCCOCCOCCOCCOCCOCCOCCNC(=O)c1c(C)[nH]c(/C=C2\C(=O)Nc3ccc(F)cc32)c1C
82

// returns reported c-Kit AVG % Activity at Specific Concentration for input COCCOCCOCCOCCOCCOCCNC(=O)c1c(C)[nH]c(/C=C2\C(=O)Nc3ccc(F)cc32)c1C
79

// returns reported c-Kit AVG % Activity at Specific Concentration for input COCCOCCOCCOCCOCCNC(=O)c1c(C)[nH]c(/C=C2\C(=O)Nc3ccc(F)cc32)c1C
76

Continuing:
// returns reported c-Kit AVG % Activity at Specific Concentration for input COCCOCCOCCNC(=O)c1c(C)[nH]c(/C=C2\C(=O)Nc3ccc(F)cc32)c1C
58
